Source listed as ChEMBL document CHEMBL1201862.

Please provide measured GI50 for the entries that follow.
# Test system: BT-549
# testSummary: NCI tumour cell line growth inhibition, 48 h
Activity calls are given as the source filed them. Rule as the data show it: active = GI50 up to about 1.1 µM and inactive = higher.

Fill: GI50 (BT-549) for this molecule CCOC(=O)C1=C(C)N(C)C(=S)NC1c1cccc(O)c1 (configuration not stated)
32.9 µM (inactive)

Report GI50 from BT-549 testing of COc1ccc(-c2nc(N)c3ncn(C4OC(CO)C(O)C4O)c3n2)cc1 (configuration not stated)
> 100 µM (inactive)

// fetch GI50; item: COC(=O)Cc1c(C2=Nc3ccccc3C2(O)CC(=O)OC)[nH]c2ccccc12 (configuration not stated) ; system: BT-549
> 100 µM (inactive)

Please report GI50 with BT-549 for item COc1cc2c(cc1OC)C1c3ccccc3CCN1CCC2.[O-][Cl+3]([O-])([O-])O (configuration not stated) .
23.6 µM (inactive)

Give the observed GI50 of `COCCOC1=CC(=O)c2c(O)ccc(O)c2C1=O` for BT-549.
1.77 µM (inactive)

Report value: GI50, system: BT-549, molecule: `COc1cc(Oc2nc3c(N)cc(C(F)(F)F)cc3nc2-c2ccccc2)cc(OC)c1OC`
4.03 µM (inactive)

Write GI50 of `Cn1c2ccccc2c2[nH]c3ccccc3c(=O)c21` ; system used: BT-549
> 100 µM (inactive)

GET GI50 where system = BT-549 and item = NC(=S)N/N=C1\c2ccccc2CCC1CCC1(O)CCc2ccccc2C1=O (configuration not stated)
16.4 µM (inactive)

Please look at `COc1cc2c(/C=C3/C(=O)Nc4ccccc43)c(Cl)[nH]c2cc1C` and tell me its recorded GI50 on BT-549.
0.0603 µM (active)

Report measured GI50 on BT-549; entry: O=C1CSC(c2ccc([N+](=O)[O-])cc2)N1c1ccc(-c2ccc(-n3c(-c4ccccc4)nc4ccccc4c3=O)cc2)cc1 (configuration not stated)
53.3 µM (inactive)

Quote BT-549 GI50 for entry `COc1ccc(C(=O)/C(Br)=C/C(=O)O)cc1` .
17.9 µM (inactive)

Would you please give the reported GI50 of `CC(C)=CCC[C@@H](C)c1c2ncc[nH]c-2c(C)c(=O)c1O` with BT-549?
30.8 µM (inactive)

State measured GI50 of the molecule C=C1C(=O)[C@]23[C@H](O)[C@H]1CC[C@H]2[C@@]12CO[C@@]3(O)C[C@@H]1C(C)(C)CC[C@@H]2O [MEGATHYRIN A] with BT-549.
4.37 µM (inactive)

Report its GI50 with BT-549 as the test system: COC(=O)c1sc2ncc3c(c2c1N)CC(C)CC3 (configuration not stated)
> 100 µM (inactive)

Under BT-549: report GI50 of `OCCN(CO)CO` .
> 100 µM (inactive)

Report the value of GI50 obtained on BT-549 for COc1ccc(NC(C)=O)cc1N1C(=O)/C(=C\c2cccc(Oc3ccccc3)c2)S(=O)(=O)C1c1ccccc1 (configuration not stated) .
53.3 µM (inactive)

# return GI50 for CCC(C)C(N)C(=O)N/N=C\c1c2c(nc3ccccc13)-c1cc3c(c(=O)n1C2)COC(=O)[C@]3(O)CC (some centres not stated) , test system: BT-549
0.174 µM (active)

Provide BT-549 GI50 reading for `c1ccc2c(c1)sc1c3cnccc3ccc21` .
> 100 µM (inactive)

Param request: GI50 | system BT-549 | item COc1ccc(COCC[C@H](C)OC2OC(CO)C(O)C(O)C2O)cc1 (some centres not stated)
> 100 µM (inactive)

State, for BT-549, measured GI50 of the molecule listed here: `CCCC[N+](CCCC)(CCCC)CCCC.O=S(=O)([O-])ON=C1c2ccccc2-c2ccccc21`
> 100 µM (inactive)

Enter GI50 (test system BT-549) for COc1cc(C2SCC(=O)N2c2ccccn2)cc(OC)c1OC (configuration not stated)
98.6 µM (inactive)

Print BT-549 GI50 for `O=[N+]([O-])c1ccc2nc3c(nc2c1)-c1c2ccccc2cc2cccc-3c12` .
3.56 µM (inactive)
